- Tested on: HUVECs
- Method: Transwell migration inhibition on HUVECs
- Format: cell-based, human
- Recorded conditions: HUVEC migration vs blank control; dose 0.05 μM
Peptide text beside a SMILES is read from it. * marks the point of attachment. X64 = O=C1C=CC(=O)N1c1cccc(CCCCCCCCCC(=O)*)c1; X66 = O=C1C=CC(=O)N1c1cccc(CCCCCCCC(=O)*)c1; X55 = O=C1C=CC(=O)N1c1ccccc1CCCCCCCCC(=O)*
Documented Inhibition rate (%) across a set of compounds
Provide the reading as a plain figure in %.

Worked cases, answers included:
Compound	Quantity unit	Recorded measurement
C[C@H](NC(=O)CNC(=O)[C@H](CCCNC(=N)N)NC(=O)CCCCCCCc1cccc(N2C(=O)C=CC2=O)c1)C(=O)N[C@@H](CC(=O)O)C(=O)N[C@@H](CCCNC(=N)N)C(=O)N[C@@H](C)C(=O)NCC(=O)NCC(=O)NCC(=O)NCC(=O)N[C@@H](CCCNC(=N)N)C(=O)NCC(=O)N[C@@H](CC(=O)O)C(=O)O [X31] (X66-RGADRAGGGGRGD-OH)	%	40.18
C[C@H](NC(=O)CNC(=O)[C@H](CCCNC(=N)N)NC(=O)CCCCCCCCCc1cccc(N2C(=O)C=CC2=O)c1)C(=O)N[C@@H](CC(=O)O)C(=O)N[C@@H](CCCNC(=N)N)C(=O)N[C@@H](C)C(=O)NCC(=O)NCC(=O)NCC(=O)NCC(=O)N[C@@H](CCCNC(=N)N)C(=O)NCC(=O)N[C@@H](CC(=O)O)C(=O)O [X33] (X64-RGADRAGGGGRGD-OH)	%	42.63

Next:
(Q) GET Inhibition rate (%) | system: HUVECs | item: C[C@H](NC(=O)CNC(=O)[C@H](CCCNC(=N)N)NC(=O)CCCCCCCCc1ccccc1N1C(=O)C=CC1=O)C(=O)N[C@@H](CC(=O)O)C(=O)N[C@@H](CCCNC(=N)N)C(=O)N[C@@H](C)C(=O)NCC(=O)NCC(=O)NCC(=O)NCC(=O)N[C@@H](CCCNC(=N)N)C(=O)NCC(=O)N[C@@H](CC(=O)O)C(=O)O [X20] (X55-RGADRAGGGGRGD-OH)
(A) 47.45

* * *

Documented Inhibition rate (%) across a set of compounds
- System: splenic lymphocytes
- Method: Proliferation of splenic lymphocytes in mice (ConA, MTT)
- Type: cell-based
- Recorded conditions: polypeptide dose 0.05 μM, ConA-stimulated mouse splenic lymphocytes, 48 h
Peptide text beside a SMILES is read from it. * marks the point of attachment. X65 = O=C1C=CC(=O)N1c1cccc(CCCCCCCCCCCCC(=O)*)c1; X72 = O=C1C=CC(=O)N1c1ccccc1CCCCCCCCCCC(=O)*; X60 = O=C1C=CC(=O)N1c1ccccc1CCCCCCCCCC(=O)*; X54 = O=C1C=CC(=O)N1c1cccc(CCCCCCC(=O)*)c1; X46 = O=C1C=CC(=O)N1c1cccc(CCCCC(=O)*)c1; X63 = O=C1C=CC(=O)N1c1ccccc1CCCCCCC(=O)*; X49 = O=C1C=CC(=O)N1c1ccccc1CCCCCC(=O)*
Provide the reading as a plain figure in %.

Worked cases, answers included:
Compound	Measured metric	Recorded measurement
C[C@H](NC(=O)CNC(=O)[C@H](CCCNC(=N)N)NC(=O)CCCCCCCCCCCCc1cccc(N2C(=O)C=CC2=O)c1)C(=O)N[C@@H](CC(=O)O)C(=O)N[C@@H](CCCNC(=N)N)C(=O)N[C@@H](C)C(=O)NCC(=O)NCC(=O)NCC(=O)NCC(=O)N[C@@H](CCCNC(=N)N)C(=O)NCC(=O)N[C@@H](CC(=O)O)C(=O)O [X36] (X65-RGADRAGGGGRGD-OH)	Inhibition rate (%)	10.41
C[C@H](NC(=O)CNC(=O)[C@H](CCCNC(=N)N)NC(=O)CCCCCCCCCc1ccccc1N1C(=O)C=CC1=O)C(=O)N[C@@H](CC(=O)O)C(=O)N[C@@H](CCCNC(=N)N)C(=O)N[C@@H](C)C(=O)NCC(=O)NCC(=O)NCC(=O)NCC(=O)N[C@@H](CCCNC(=N)N)C(=O)NCC(=O)N[C@@H](CC(=O)O)C(=O)O [X21] (X60-RGADRAGGGGRGD-OH)	Inhibition rate (%)	12.59
C[C@H](NC(=O)CNC(=O)[C@H](CCCNC(=N)N)NC(=O)CCCCCCCCCCc1ccccc1N1C(=O)C=CC1=O)C(=O)N[C@@H](CC(=O)O)C(=O)N[C@@H](CCCNC(=N)N)C(=O)N[C@@H](C)C(=O)NCC(=O)NCC(=O)NCC(=O)NCC(=O)N[C@@H](CCCNC(=N)N)C(=O)NCC(=O)N[C@@H](CC(=O)O)C(=O)O [X22] (X72-RGADRAGGGGRGD-OH)	Inhibition rate (%)	15.69
C[C@H](NC(=O)CNC(=O)[C@H](CCCNC(=N)N)NC(=O)CCCCCCc1ccccc1N1C(=O)C=CC1=O)C(=O)N[C@@H](CC(=O)O)C(=O)N[C@@H](CCCNC(=N)N)C(=O)N[C@@H](C)C(=O)NCC(=O)NCC(=O)NCC(=O)NCC(=O)N[C@@H](CCCNC(=N)N)C(=O)NCC(=O)N[C@@H](CC(=O)O)C(=O)O [X18] (X63-RGADRAGGGGRGD-OH)	Inhibition rate (%)	10.56
C[C@H](NC(=O)CNC(=O)[C@H](CCCNC(=N)N)NC(=O)CCCCCCc1cccc(N2C(=O)C=CC2=O)c1)C(=O)N[C@@H](CC(=O)O)C(=O)N[C@@H](CCCNC(=N)N)C(=O)N[C@@H](C)C(=O)NCC(=O)NCC(=O)NCC(=O)NCC(=O)N[C@@H](CCCNC(=N)N)C(=O)NCC(=O)N[C@@H](CC(=O)O)C(=O)O [X30] (X54-RGADRAGGGGRGD-OH)	Inhibition rate (%)	15.24
C[C@H](NC(=O)CNC(=O)[C@H](CCCNC(=N)N)NC(=O)CCCCCc1ccccc1N1C(=O)C=CC1=O)C(=O)N[C@@H](CC(=O)O)C(=O)N[C@@H](CCCNC(=N)N)C(=O)N[C@@H](C)C(=O)NCC(=O)NCC(=O)NCC(=O)NCC(=O)N[C@@H](CCCNC(=N)N)C(=O)NCC(=O)N[C@@H](CC(=O)O)C(=O)O [X17] (X49-RGADRAGGGGRGD-OH)	Inhibition rate (%)	7.92

(Q) Return Inhibition rate (%) (reported value) for this compound: C[C@H](NC(=O)CNC(=O)[C@H](CCCNC(=N)N)NC(=O)CCCCc1cccc(N2C(=O)C=CC2=O)c1)C(=O)N[C@@H](CC(=O)O)C(=O)N[C@@H](CCCNC(=N)N)C(=O)N[C@@H](C)C(=O)NCC(=O)NCC(=O)NCC(=O)NCC(=O)N[C@@H](CCCNC(=N)N)C(=O)NCC(=O)N[C@@H](CC(=O)O)C(=O)O [X28] (X46-RGADRAGGGGRGD-OH)
(A) 14.64

This collection of values is drawn from patent US20200270309A1.
